Readings of GI50 for the listed compounds
test system: NCI/ADR-RES; assay: NCI tumour cell line growth inhibition, 48 h
Active and inactive are the calls of the source. Cut-off read from the data, not from the text of the source: active = GI50 up to about 1.1 µM and inactive = higher.

| compound | GI50 |
| --- | --- |
| N/N=C(\C(=O)Nc1ccc(Cl)cc1Cl)C(c1cnc2ccccc2n1)[N+](=O)[O-] (stereo not given) | > 100 µM (inactive) |
| CCN(CC)c1nnc(CCCCCCCCc2nnc(N(CC)CC)o2)o1 | > 100 µM (inactive) |
| c1cnc2c(c1)Nc1cnncc1S2 | > 100 µM (inactive) |
| COC(=O)C1(Cc2ccccc2)Cc2c(C)ccc(C)c2C1=O (stereo not given) | 28.1 µM (inactive) |
| CC(=O)O/C(=C1\C[C@H]2[C@@H]3CC=C4C[C@@H](OC(C)=O)CC[C@]4(C)[C@H]3CC[C@]2(C)C1=O)C(F)(F)F | 7.16 µM (inactive) |
